Measured values drawn from patent US9163227B2 for this set.

targetEntity: differentiated 3T3-L1 adipocytes (Mus musculus, UniProt P16092+Q99N32)
Sequence (P16092 22-822): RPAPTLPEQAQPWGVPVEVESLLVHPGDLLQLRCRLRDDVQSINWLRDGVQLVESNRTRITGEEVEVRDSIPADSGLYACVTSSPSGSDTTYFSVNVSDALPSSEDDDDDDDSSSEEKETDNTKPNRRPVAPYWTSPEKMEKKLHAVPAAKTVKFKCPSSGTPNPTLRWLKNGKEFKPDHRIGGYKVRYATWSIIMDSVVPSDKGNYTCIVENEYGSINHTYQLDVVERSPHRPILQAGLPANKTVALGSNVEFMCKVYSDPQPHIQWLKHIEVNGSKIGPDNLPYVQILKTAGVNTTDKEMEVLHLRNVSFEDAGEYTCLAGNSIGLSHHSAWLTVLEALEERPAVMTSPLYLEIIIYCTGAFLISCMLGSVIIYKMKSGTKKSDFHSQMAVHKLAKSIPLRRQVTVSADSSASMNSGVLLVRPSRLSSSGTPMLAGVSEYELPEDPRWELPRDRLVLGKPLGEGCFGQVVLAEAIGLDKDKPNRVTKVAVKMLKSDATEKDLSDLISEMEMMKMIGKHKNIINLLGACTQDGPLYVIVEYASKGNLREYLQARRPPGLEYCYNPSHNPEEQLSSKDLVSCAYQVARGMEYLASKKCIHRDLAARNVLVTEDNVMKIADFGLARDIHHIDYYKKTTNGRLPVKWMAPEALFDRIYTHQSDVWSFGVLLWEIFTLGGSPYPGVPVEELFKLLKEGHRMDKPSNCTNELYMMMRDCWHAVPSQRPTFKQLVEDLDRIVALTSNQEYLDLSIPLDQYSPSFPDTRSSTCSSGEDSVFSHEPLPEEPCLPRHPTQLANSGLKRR
Sequence (Q99N32 whole entry): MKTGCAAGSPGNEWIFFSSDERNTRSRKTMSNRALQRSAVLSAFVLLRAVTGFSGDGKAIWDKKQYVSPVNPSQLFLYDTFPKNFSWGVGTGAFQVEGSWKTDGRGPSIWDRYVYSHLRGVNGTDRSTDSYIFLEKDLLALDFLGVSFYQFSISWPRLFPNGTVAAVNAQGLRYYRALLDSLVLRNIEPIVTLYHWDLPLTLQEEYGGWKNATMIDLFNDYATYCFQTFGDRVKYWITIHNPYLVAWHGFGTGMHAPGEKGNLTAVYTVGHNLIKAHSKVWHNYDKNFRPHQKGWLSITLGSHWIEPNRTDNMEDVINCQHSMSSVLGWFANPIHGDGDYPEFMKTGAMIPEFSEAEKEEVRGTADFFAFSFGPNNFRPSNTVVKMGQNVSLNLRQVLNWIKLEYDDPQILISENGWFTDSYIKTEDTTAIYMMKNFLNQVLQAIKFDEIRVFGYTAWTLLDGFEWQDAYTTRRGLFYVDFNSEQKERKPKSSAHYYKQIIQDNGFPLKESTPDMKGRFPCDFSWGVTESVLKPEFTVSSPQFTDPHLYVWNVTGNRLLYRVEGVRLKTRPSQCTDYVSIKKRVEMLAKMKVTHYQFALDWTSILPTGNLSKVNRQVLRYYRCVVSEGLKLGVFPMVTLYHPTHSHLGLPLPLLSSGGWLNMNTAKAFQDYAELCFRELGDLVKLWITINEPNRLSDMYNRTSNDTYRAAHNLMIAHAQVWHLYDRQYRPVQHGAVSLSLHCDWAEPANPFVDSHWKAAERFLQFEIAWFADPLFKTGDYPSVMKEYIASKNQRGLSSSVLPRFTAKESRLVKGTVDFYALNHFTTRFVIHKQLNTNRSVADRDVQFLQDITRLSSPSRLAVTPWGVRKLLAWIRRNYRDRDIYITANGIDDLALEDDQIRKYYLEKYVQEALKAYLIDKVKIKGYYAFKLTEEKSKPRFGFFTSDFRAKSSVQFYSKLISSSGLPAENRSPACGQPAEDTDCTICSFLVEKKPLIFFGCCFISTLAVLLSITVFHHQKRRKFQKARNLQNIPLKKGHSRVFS
assay: Glucose uptake assay
Assay type: cell-based
testConditions: 3T3-L1 adipocytes, 24 hrs; unconjugated protein
Entries and their measured pEC50 follow.
// returns pEC50 (minus log10 of molar concentration), number only

{"columns": ["molecule", "pEC50"],
 "data": [
  ["FGF21ΔH-K56-K59R-K69R-K122: FGF21 lysine mutant, SEQ ID NO:21 (protein, listed as Homo sapiens) PIPDSSPLLQFGGQVRQRYLYTDDAQQTEAHLEIREDGTVGGAADQSPESLLQLRALRPGVIQILGVRTSRFLCQRPDGALYGSLHFDPEACSFRELLLEDGYNVYQSEAHGLPLHLPGNKSPHRDPAPRGPARFLPLPGLPPALPEPPGILAPQPPDVGSSDPLSMVGPSQGRSPSYAS", 8.77],
  ["FGF21ΔH-K56-K59R-K69R-K122R: FGF21 lysine mutant, SEQ ID NO:18 (protein, listed as Homo sapiens) PIPDSSPLLQFGGQVRQRYLYTDDAQQTEAHLEIREDGTVGGAADQSPESLLQLKALRPGVIQILGVRTSRFLCQRPDGALYGSLHFDPEACSFRELLLEDGYNVYQSEAHGLPLHLPGNRSPHRDPAPRGPARFLPLPGLPPALPEPPGILAPQPPDVGSSDPLSMVGPSQGRSPSYAS", 8.26],
  ["FGF21ΔH-K56R-K59-K69R-K122R: FGF21 lysine mutant, SEQ ID NO:19 (protein, listed as Homo sapiens) PIPDSSPLLQFGGQVRQRYLYTDDAQQTEAHLEIREDGTVGGAADQSPESLLQLRALKPGVIQILGVRTSRFLCQRPDGALYGSLHFDPEACSFRELLLEDGYNVYQSEAHGLPLHLPGNRSPHRDPAPRGPARFLPLPGLPPALPEPPGILAPQPPDVGSSDPLSMVGPSQGRSPSYAS", 9.05]
]}

Please turn your attention to the following entry.
INPUT: Name the recorded pEC50 for FGF21ΔH-K56R-K59R-K69-K122R: FGF21 lysine mutant, SEQ ID NO:20 (protein, listed as Homo sapiens) PIPDSSPLLQFGGQVRQRYLYTDDAQQTEAHLEIREDGTVGGAADQSPESLLQLRALRPGVIQILGVKTSRFLCQRPDGALYGSLHFDPEACSFRELLLEDGYNVYQSEAHGLPLHLPGNRSPHRDPAPRGPARFLPLPGLPPALPEPPGILAPQPPDVGSSDPLSMVGPSQGRSPSYAS .
OUTPUT: 8.28
